measured-target: T1, Human IL12 (His Tag) (human, UniProt P29459 23-219; P29460 23-328)
T1 construct: Bought His-tagged heterodimer
T1 sequence (looked up) 1: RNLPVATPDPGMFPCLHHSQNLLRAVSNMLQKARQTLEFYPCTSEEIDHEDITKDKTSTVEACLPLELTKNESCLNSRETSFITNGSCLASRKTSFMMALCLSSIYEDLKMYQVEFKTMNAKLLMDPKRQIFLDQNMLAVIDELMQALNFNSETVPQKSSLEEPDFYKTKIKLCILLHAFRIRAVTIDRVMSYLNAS
T1 sequence (looked up) 2: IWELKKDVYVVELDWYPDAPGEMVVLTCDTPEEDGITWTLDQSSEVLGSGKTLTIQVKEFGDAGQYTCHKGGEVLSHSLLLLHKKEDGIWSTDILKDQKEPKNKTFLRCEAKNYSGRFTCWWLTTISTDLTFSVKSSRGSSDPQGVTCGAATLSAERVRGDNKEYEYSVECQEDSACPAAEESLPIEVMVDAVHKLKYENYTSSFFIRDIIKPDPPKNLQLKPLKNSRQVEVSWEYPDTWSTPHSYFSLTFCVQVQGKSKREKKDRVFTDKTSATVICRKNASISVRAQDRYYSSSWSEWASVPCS
test-protocol: FACS competition, IL-12-His 20 nM on 293T-IL-12Rβ1&IL-23R cells; antibody 30 µg/mL
Method: 200 μL of 1% PBSA was added into each sample, and the mixture was centrifuged at 700×g for 5 min to discard the supernatant. According to experiment design, correspondingly diluted antibody (highest final concentration of 30 μg/mL, 3-fold dilution, 8 concentrations in total) and human IL-12 (Sino Biological, Cat. No.: CT-050-H08H-20) (final concentration of 20 nM) were mixed at a ratio of 1:1, and a blank control was set. […]
Parameter MFI: see the listing below.
Respond numerically; units are MFI and should not be typed.

Example entries and their recorded answers appear below.
Request the reported MFI associated with H5L12 (antibody, human IgG1, kappa, V domains shown, human IgG1 / kappa constant regions; also called humanized antibody H5L12) VH: EVQLVQSGAEVKKPGESLKISCQSSGYSFTTYWIGWVRQMPGQGLEWIGIMSPVDSDIRYNPMFRGQVTMSVDKSSSTAYLQWSSLKASDTAMYYCARRRPGQGYFDFWGQGTMVTVSS VL: EIVLTQSPATLSASPGERATISCRASQSVSSWLAWYQQKPGQAPRSLIYAASNRQSGIPARFSGSGSGTDFTLTISSLEPEDFAVYYCQQYNIYPYTFGQGTRLEIKR
31.8

Repeat with H5L11 (antibody, human IgG1, kappa, V domains shown, human IgG1 / kappa constant regions; also called humanized antibody H5L11) VH: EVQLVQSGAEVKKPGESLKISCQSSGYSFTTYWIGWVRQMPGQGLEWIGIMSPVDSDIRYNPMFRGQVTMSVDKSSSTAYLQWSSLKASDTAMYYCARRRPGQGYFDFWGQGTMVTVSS VL: EIVLTQSPATLSASPGERATISCRASQSVSSWLAWYQQKPGQAPRSLIYSASNLQSGIPARFSGSGSGTDFTLTISSLEPEDFAVYYCQQYNIYPYTFGQGTRLEIKR
33

Subsequent entry: ustekinumab (antibody, V domains shown) VH: EVQLVQSGAEVKKPGESLKISCKGSGYSFTTYWLGWVRQMPGKGLDWIGIMSPVDSDIRYSPSFQGQVTMSVDKSITTAYLQWNSLKASDTAMYYCARRRPGQGYFDFWGQGTLVTVSS VL: DIQMTQSPSSLSASVGDRVTITCRASQGISSWLAWYQQKPEKAPKSLIYAASSLQSGVPSRFSGSGSGTDFTLTISSLQPEDFATYYCQQYNIYPYTFGQGTKLEIK
28.7

Now, please, on to the next binder.
// query MFI value for entry H5L9 (antibody, human IgG1, kappa, V domains shown, human IgG1 (P01857) / kappa (P01834) constant regions; also called humanized antibody H5L9) VH: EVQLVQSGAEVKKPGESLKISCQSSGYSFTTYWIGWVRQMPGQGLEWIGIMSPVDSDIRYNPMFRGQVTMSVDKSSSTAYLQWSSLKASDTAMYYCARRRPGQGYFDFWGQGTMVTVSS VL: DIQMTQSPSSLSASVGDRVTITCKASQNVGSWLAWYQQKPGKAPKSLIYSASSRQSGVPSRFSGSGSGTDFTLTISSLQPEDFATYYCQQYDIYPFTFGQGTKLEIKR
117
